System: BDF1 mice, P388 leukemia ip, median survival T/C
PROCEDURE SUMMARY: NCI In Vivo Anticancer Drug Screen. Data for tumor model P388 Leukemia (intraperitoneal) in B6D2F1 (BDF1) mice
MEASUREMENT CONDITIONS: endpoint: median survival time; dose: 200.0 mg/kg/injection; schedule: Q04DX003 (ip); vehicle: saline; higher = longer survival
Method: The antitumor activity of compounds was measured in mice bearing transplantable tumors. Survival or tumor size were measured and the results are expressed as the measurement made in the treated group (T) divided by the measurement made in the vehicle treated control group (C). The tumor model used in this assay is P388 Leukemia (intraperitoneal) in B6D2F1 (BDF1) mice
Inconclusive results and toxic doses are left out.
MEASURE NAME: T/C

Past entries and their recorded results:
| MOLECULE | T/C |
| --- | --- |
| CC1(C)C(=O)C(C)(C)C1=NO | 100 % of control |
| CC(=O)c1ccccc1-n1c(C)ccc1C | 92 % of control |
| CC1(C)OC(COCCOCCO)C(COCCOCCO)O1 (stereo not given) | 103 % of control |
| COc1cc2c(cc1OC)C1c3cc(OC)c(OC)cc3CC(=O)N1CC2 (stereo not given) | 102 % of control |
| C=CCOCCO | 95 % of control |

Incoming: // returns reported T/C for input CCOC(=O)C(C)(OCC)OCC
Outgoing: 91 % of control

Incoming: Try this molecule too: CN(CCCN(C)N=Nc1ccccc1C(=O)O)N=Nc1ccccc1C(=O)O
Outgoing: 88 % of control

Incoming: Do the same for COc1ccc(NC(=O)CC(C)=O)cc1 please
Outgoing: 116 % of control

Each recorded value in this set is attributed to PubChem BioAssay AID328.
